test system: lipase (EC 3.1.1.3); assay: lipase sensitivity; type: biochemical; details: emulsion prepared as in Example 22
Measured Metric: Lipase sensitivity (mE/min per 100 U/1)
Field format: number, assumed mE/min per 100 U/1, no unit text.

// worked examples, Lipase sensitivity included
1) CCCCCCCCCCCCCCCCC(COCC(COC(=O)CCCC(=O)Oc1ccc2nc3ccc(=O)cc-3oc2c1C)OC)OC (racemic) :: 19.0
2) CCCCCCCCCCCCOCC(CSC(=O)CCCC(=O)Oc1ccc2nc3ccc(=O)cc-3oc2c1C)OCCCCCCCCCCCC (racemic) :: 4.1
3) CCCCCCCCCCCCCCCCC(COC(=O)CCCC(=O)Oc1ccc2nc3ccc(=O)cc-3oc2c1C)OCCCCCCCCCCCC (centres unmarked) :: 25.5

What does the record list as Lipase sensitivity for CCCCCCCCCCCCOCC(COC(=O)CCCCCCCCCCCCC(=O)Oc1ccc2nc3ccc(=O)cc-3oc2c1C)OCCCCCCCCCCCC (racemic) ?
23.6

What does the record list as Lipase sensitivity for CCCCCCCCCCCCOCC(COC(=O)CCC(=O)Oc1ccc2nc3ccc(=O)cc-3oc2c1)OCCCCCCCCCCCC (racemic) ?
8.7

====

Entries annotated with measured blank
Experiment: blank change (water instead of sample)
Type: physicochemical
Conditions: 100 μl water instead of sample; extinction change at 578 nm
Procedure: 1.2 g. Sodium desoxycholate and 0.15 mg. colipase (from the pig) are dissolved in 60 ml. distilled water, with stirring. […] 2.5 ml. of the so produced solution are mixed with 100 μ. of sample (serum). The reaction is monitored photometrically at 578 nm Hg. The blank change was determined with a reagent according to Example 1 and various lipase substrates. Instead of the sample, 100 μ1. water were added and the extinction change monitored photometrically at 578 nm (ΔmE/min.).

// worked examples, blank included
1. CCCCCCCCCCCCOCC(COC(=O)CCCC(=O)Oc1ccc2nc3ccc(=O)cc-3oc2c1)OCCCCCCCCCCCC (racemic) [Example 7] :: 2.4-3.0 ΔmE/min
2. CCCCCCCCCCCOCC(COC(=O)CCCC(=O)Oc1ccc2nc3ccc(=O)cc-3oc2c1)OCCCCCCCCCCC (racemic) [Example 6] :: 2.0-2.8 ΔmE/min
3. CCCCCCCCCCCCOCC(COC(=O)CCCCCCCC(=O)Oc1ccc2nc3ccc(=O)cc-3oc2c1)OCCCCCCCCCCCC (racemic) [Example 21] :: 9.8-11.9 ΔmE/min
4. CCCCCCCCOCC(COC(=O)CCCCCCCC(=O)Oc1ccc2nc3ccc(=O)cc-3oc2c1)OCCCCCCCC (racemic) [Example 4] :: 0.4-0.8 ΔmE/min
5. CCCCCCCCCCCCOCC(COC(=O)CCCCCC(=O)Oc1ccc2nc3ccc(=O)cc-3oc2c1)OCCCCCCCCCCCC (racemic) [Example 8] :: 2.1-2.4 ΔmE/min

Now take the following molecule into account.
What does the record list as blank for CCCCCCCCCCOCC(COC(=O)CCCC(=O)Oc1ccc2nc3ccc(=O)cc-3oc2c1)OCCCCCCCCCC (racemic) [Example 5] ?
2.4-3.0 ΔmE/min
